Entries with reported IC50 on Acetylcholinesterase (Electrophorus electricus)
Sequence (O42275 whole entry): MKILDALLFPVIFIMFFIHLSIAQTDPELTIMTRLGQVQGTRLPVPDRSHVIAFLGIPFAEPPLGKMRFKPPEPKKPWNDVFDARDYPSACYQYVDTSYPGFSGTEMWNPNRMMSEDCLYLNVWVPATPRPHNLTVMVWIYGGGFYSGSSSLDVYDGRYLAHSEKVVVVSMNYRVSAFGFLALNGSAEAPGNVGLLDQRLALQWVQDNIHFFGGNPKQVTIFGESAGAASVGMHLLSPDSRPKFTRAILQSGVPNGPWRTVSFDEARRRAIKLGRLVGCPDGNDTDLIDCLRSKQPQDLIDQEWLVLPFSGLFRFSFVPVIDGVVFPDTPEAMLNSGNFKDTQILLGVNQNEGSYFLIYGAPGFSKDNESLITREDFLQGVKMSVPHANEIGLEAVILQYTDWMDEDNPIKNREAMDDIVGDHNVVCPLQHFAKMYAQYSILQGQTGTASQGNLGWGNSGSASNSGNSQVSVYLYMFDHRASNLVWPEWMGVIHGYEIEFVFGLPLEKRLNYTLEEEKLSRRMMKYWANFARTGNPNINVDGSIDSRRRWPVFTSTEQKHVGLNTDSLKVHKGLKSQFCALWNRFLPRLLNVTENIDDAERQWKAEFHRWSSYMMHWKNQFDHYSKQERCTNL

Here are 2 compounds together with their reported answers.
>  <Molecular String>
Cc1c(C#N)c(=O)oc2cc(OCc3ccccc3Br)ccc12

>  <Measured>
> 100 µM

$$$$
>  <Molecular String>
Cc1c(C#N)c(=O)oc2cc(OCc3ccc(Cl)cc3)ccc12

>  <Measured>
> 100 µM

$$$$

Lab note: compound `Cc1c(Cl)c(=O)oc2cc(OCCN3CCC(Cc4ccccc4)CC3)ccc12` tested on Acetylcholinesterase (Electrophorus electricus); recorded IC50 was 31.3 µM

Lab note: compound `Cc1cc(=O)oc2cc(OCCN3CCCCC3)ccc12` tested on Acetylcholinesterase (Electrophorus electricus); recorded IC50 was 66.4 µM

The values you see were collected from ChEMBL document CHEMBL4041499.
